Provenance of the data: ChEMBL document CHEMBL1137015

experiment: Inhibition of human intestinal CE-mediated irinotecan hydrolysis
measurement_label: Ki (nM)
The reply should contain only the number, in nM.

Some solved cases for reference:
>  <smiles_structure>
Cc1cc(NS(=O)(=O)c2ccccc2)ccc1NS(=O)(=O)c1ccccc1

>  <test_value>
238

$$$$
>  <smiles_structure>
O=S(=O)(Nc1ccc(NS(=O)(=O)c2ccc(Cl)cc2)cc1)c1ccc(Cl)cc1

>  <test_value>
141

$$$$
>  <smiles_structure>
O=S(=O)(Nc1ccc(NS(=O)(=O)c2ccc(F)cc2)cc1)c1ccc(F)cc1

>  <test_value>
79

$$$$

// Ki lookup, compound = CCOc1ccc(NS(=O)(=O)c2ccc(Cl)cc2)cc1 , result: 3220

// Ki value for O=S(=O)(Nc1ccc2c(c1)Cc1cc(NS(=O)(=O)c3cccc(Br)c3)ccc1-2)c1cccc(Br)c1 : 39.7
